Examples of molecules with documented viability, T/C follow.
- System: KRAS PDC multicell spheroid viability
- test protocol: Anticancer human tumor 825966-067-R-J1-PDC patient-derived colon carcinoma cell line growth inhibition [KRAS2]
- condition label: second compound 1 µM; first compound 0.1 µM; active compounds read low
property measured: viability, T/C (%)

INSERT INTO measurements (molecule, property_measured, quantity_unit, measured_result) VALUES
  ('CC(C)n1nc(-c2ccc3oc(N)nc3c2)c2c(N)ncnc21 + CC1OCC2(CCN(c3cnc(Sc4ccnc(N)c4Cl)c(N)n3)CC2)C1N', 'viability, T/C', '%', 84.8),
  ('CCN1CCN(Cc2ccc(Nc3ncc(F)c(-c4cc(F)c5nc(C)n(C(C)C)c5c4)n3)nc2)CC1 + C=CC(=O)N1CCN(c2nc(=O)n(-c3c(C)ccnc3C(C)C)c3nc(-c4c(O)cccc4F)c(F)cc23)C(C)C1', 'viability, T/C', '%', 114),
  ('CCNC(=O)CC1N=C(c2ccc(Cl)cc2)c2cc(OC)ccc2-n2c(C)nnc21 (stereo not given) + C=CC(=O)N1CCN(c2nc(OCC3CCCN3C)nc3c2CCN(c2cccc4cccc(C)c24)C3)CC1CC#N', 'viability, T/C', '%', 110),
  ('O=C(c1cc(Cc2n[nH]c(=O)c3ccccc23)ccc1F)N1CCN(C(=O)C2CC2)CC1 + C=CC(=O)N1CCN(c2nc(=O)n(-c3c(C)ccnc3C(C)C)c3nc(-c4c(O)cccc4F)c(F)cc23)C(C)C1', 'viability, T/C', '%', 84.3),
  ('COc1cc(Nc2ncc3c(n2)-c2ccc(Cl)cc2C(c2c(F)cccc2OC)=NC3)ccc1C(=O)O + CNCc1ccccc1-c1csc(C(C)Nc2nc(C)nc3cc(OC)c(OC)cc23)c1', 'viability, T/C', '%', 123),
  ('CC1(C)CCC(CN2CCN(c3ccc(C(=O)NS(=O)(=O)c4ccc(NCC5CCOCC5)c([N+](=O)[O-])c4)c(Oc4cnc5[nH]ccc5c4)c3)CC2)=C(c2ccc(Cl)cc2)C1 + CC1OCC2(CCN(c3cnc(Sc4ccnc(N)c4Cl)c(N)n3)CC2)C1N', 'viability, T/C', '%', 110),
  ('CC(=O)OC12COC1CC(O)C1(C)C(=O)C(O)C3=C(C)C(OC(=O)C(O)C(NC(=O)OC(C)(C)C)c4ccccc4)CC(O)(C(OC(=O)c4ccccc4)C21)C3(C)C (stereo not given) + CC1OCC2(CCN(c3cnc(Sc4ccnc(N)c4Cl)c(N)n3)CC2)C1N', 'viability, T/C', '%', 18.9),
  ('CCN1CCN(Cc2ccc(Nc3ncc(F)c(-c4cc(F)c5nc(C)n(C(C)C)c5c4)n3)nc2)CC1 + C=CC(=O)N1CCN(c2nc(OCC3CCCN3C)nc3c2CCN(c2cccc4cccc(C)c24)C3)CC1CC#N', 'viability, T/C', '%', 166),
  ('CC(=O)OC12COC1CC(O)C1(C)C(=O)C(O)C3=C(C)C(OC(=O)C(O)C(NC(=O)OC(C)(C)C)c4ccccc4)CC(O)(C(OC(=O)c4ccccc4)C21)C3(C)C (stereo not given) + C=CC(=O)N1CCN(c2nc(OCC3CCCN3C)nc3c2CCN(c2cccc4cccc(C)c24)C3)CC1CC#N', 'viability, T/C', '%', 30),
  ('Cn1ncnc1[C@H]1c2n[nH]c(=O)c3cc(F)cc(c23)N[C@@H]1c1ccc(F)cc1 + COc1cc2nc(C)nc(NC(C)c3cc(N)cc(C(F)(F)F)c3)c2cc1OC1CCOC1', 'viability, T/C', '%', 92.1),
  ('COc1cc2nccc(Oc3ccc(NC(=O)C4(C(=O)Nc5ccc(F)cc5)CC4)cc3)c2cc1OC + CNCc1ccccc1-c1csc(C(C)Nc2nc(C)nc3cc(OC)c(OC)cc23)c1', 'viability, T/C', '%', 117),
  ('COc1cc(Nc2ncc3c(n2)-c2ccc(Cl)cc2C(c2c(F)cccc2OC)=NC3)ccc1C(=O)O + C=CC(=O)N1CCN(c2nc(OCC3CCCN3C)nc3c2CCN(c2cccc4cccc(C)c24)C3)CC1CC#N', 'viability, T/C', '%', 150),
  ('CN(C)C/C=C/C(=O)Nc1cc2c(Nc3ccc(F)c(Cl)c3)ncnc2cc1O[C@H]1CCOC1 + C=CC(=O)N1CCN(c2nc(=O)n(-c3c(C)ccnc3C(C)C)c3nc(-c4c(O)cccc4F)c(F)cc23)C(C)C1', 'viability, T/C', '%', 107),
  ('COC(=O)c1ccc2c(C(=Nc3ccc(N(C)C(=O)CN4CCN(C)CC4)cc3)c3ccccc3)c(O)[nH]c2c1 + COc1cc2nc(C)nc(NC(C)c3cc(N)cc(C(F)(F)F)c3)c2cc1OC1CCOC1', 'viability, T/C', '%', 98.1),
  ('CC(C)n1nc(-c2ccc3oc(N)nc3c2)c2c(N)ncnc21 + C=CC(=O)N1CCN(c2nc(OCC3CCCN3C)nc3c2CCN(c2cccc4cccc(C)c24)C3)CC1CC#N', 'viability, T/C', '%', 85.2),
  ('COc1cc2nccc(Oc3ccc(NC(=O)C4(C(=O)Nc5ccc(F)cc5)CC4)cc3)c2cc1OC + CC1OCC2(CCN(c3cnc(Sc4ccnc(N)c4Cl)c(N)n3)CC2)C1N', 'viability, T/C', '%', 98.1),
  ('CCNC(=O)CC1N=C(c2ccc(Cl)cc2)c2cc(OC)ccc2-n2c(C)nnc21 (stereo not given) + C=CC(=O)N1CCN(c2nc(=O)n(-c3c(C)ccnc3C(C)C)c3nc(-c4c(O)cccc4F)c(F)cc23)C(C)C1', 'viability, T/C', '%', 91.5),
  ('CN(C)C/C=C/C(=O)Nc1cc2c(Nc3ccc(F)c(Cl)c3)ncnc2cc1O[C@H]1CCOC1 + COc1cc2nc(C)nc(NC(C)c3cc(N)cc(C(F)(F)F)c3)c2cc1OC1CCOC1', 'viability, T/C', '%', 83.5),
  ('CCNC(=O)CC1N=C(c2ccc(Cl)cc2)c2cc(OC)ccc2-n2c(C)nnc21 (stereo not given) + CC1OCC2(CCN(c3cnc(Sc4ccnc(N)c4Cl)c(N)n3)CC2)C1N', 'viability, T/C', '%', 139),
  ('CC1(C)CCC(CN2CCN(c3ccc(C(=O)NS(=O)(=O)c4ccc(NCC5CCOCC5)c([N+](=O)[O-])c4)c(Oc4cnc5[nH]ccc5c4)c3)CC2)=C(c2ccc(Cl)cc2)C1 + C=CC(=O)N1CCN(c2nc(=O)n(-c3c(C)ccnc3C(C)C)c3nc(-c4c(O)cccc4F)c(F)cc23)C(C)C1', 'viability, T/C', '%', 108);

====

Examples of compounds with documented viability, T/C follow.
- Test system: KRAS PDC multicell spheroid viability
- test protocol: Anticancer human tumor 825966-067-R-J1-PDC cell line growth inhibition [KRAS2];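 further: spheroids exposed to compounds for 7 days; 100% = DMSO vehicle control viability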
- condition label: second compound 0.1 µM; first compound 0.316 µM; active compounds read low
property measured: viability, T/C (%)

INSERT INTO assay_data (compound, measured_result) VALUES
  ('O=C(c1cc(Cc2n[nH]c(=O)c3ccccc23)ccc1F)N1CCN(C(=O)C2CC2)CC1 + CNCc1ccccc1-c1csc(C(C)Nc2nc(C)nc3cc(OC)c(OC)cc23)c1', 81.1),
  ('COc1cc2nccc(Oc3ccc(NC(=O)C4(C(=O)Nc5ccc(F)cc5)CC4)cc3)c2cc1OC + C=CC(=O)N1CCN(c2nc(=O)n(-c3c(C)ccnc3C(C)C)c3nc(-c4c(O)cccc4F)c(F)cc23)C(C)C1', 81.8),
  ('CC1OCC2(CCN(c3cnc(Sc4ccnc(N)c4Cl)c(N)n3)CC2)C1N (stereo not given) + COc1cc2nc(C)nc(NC(C)c3cc(N)cc(C(F)(F)F)c3)c2cc1OC1CCOC1', 74),
  ('CCN1CCN(Cc2ccc(Nc3ncc(F)c(-c4cc(F)c5nc(C)n(C(C)C)c5c4)n3)nc2)CC1 + CC1OCC2(CCN(c3cnc(Sc4ccnc(N)c4Cl)c(N)n3)CC2)C1N', 143),
  ('COc1cc(Nc2ncc3c(n2)-c2ccc(Cl)cc2C(c2c(F)cccc2OC)=NC3)ccc1C(=O)O + CNCc1ccccc1-c1csc(C(C)Nc2nc(C)nc3cc(OC)c(OC)cc23)c1', 165);

====

- Test system: KRAS PDC multicell spheroid viability
- test protocol: Anticancer human tumor 825966-067-R-J1-PDC cell line growth inhibition [KRAS2];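 further: spheroids exposed to compounds for 7 days; 100% = DMSO vehicle control viability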
- condition label: second compound 0.0316 µM; first compound 3.16 µM; active compounds read low
property measured: viability, T/C (%)

INSERT INTO results (molecule, assay_target, property_measured, measured_result) VALUES
  ('Cn1nccc1Nc1nccc(-c2cc3c(s2)C(C)(C)N(CCN2CCOCC2)C3=O)n1 + C=CC(=O)N1CCN(c2nc(OCC3CCCN3C)nc3c2CCN(c2cccc4cccc(C)c24)C3)CC1CC#N', 'KRAS PDC multicell spheroid viability', 'viability, T/C', 95.3),
  ('O=C(c1cc(Cc2n[nH]c(=O)c3ccccc23)ccc1F)N1CCN(C(=O)C2CC2)CC1 + C=CC(=O)N1CCN(c2nc(OCC3CCCN3C)nc3c2CCN(c2cccc4cccc(C)c24)C3)CC1CC#N', 'KRAS PDC multicell spheroid viability', 'viability, T/C', 98.4),
  ('COc1cc(Nc2ncc3c(n2)-c2ccc(Cl)cc2C(c2c(F)cccc2OC)=NC3)ccc1C(=O)O + C=CC(=O)N1CCN(c2nc(OCC3CCCN3C)nc3c2CCN(c2cccc4cccc(C)c24)C3)CC1CC#N', 'KRAS PDC multicell spheroid viability', 'viability, T/C', 138),
  ('CCNC(=O)CC1N=C(c2ccc(Cl)cc2)c2cc(OC)ccc2-n2c(C)nnc21 (stereo unspecified) + C=CC(=O)N1CCN(c2nc(OCC3CCCN3C)nc3c2CCN(c2cccc4cccc(C)c24)C3)CC1CC#N', 'KRAS PDC multicell spheroid viability', 'viability, T/C', 82.2),
  ('COc1cc2nccc(Oc3ccc(NC(=O)C4(C(=O)Nc5ccc(F)cc5)CC4)cc3)c2cc1OC + C=CC(=O)N1CCN(c2nc(OCC3CCCN3C)nc3c2CCN(c2cccc4cccc(C)c24)C3)CC1CC#N', 'KRAS PDC multicell spheroid viability', 'viability, T/C', 4.36),
  ('CC1(C)CCC(CN2CCN(c3ccc(C(=O)NS(=O)(=O)c4ccc(NCC5CCOCC5)c([N+](=O)[O-])c4)c(Oc4cnc5[nH]ccc5c4)c3)CC2)=C(c2ccc(Cl)cc2)C1 + C=CC(=O)N1CCN(c2nc(OCC3CCCN3C)nc3c2CCN(c2cccc4cccc(C)c24)C3)CC1CC#N', 'KRAS PDC multicell spheroid viability', 'viability, T/C', 12.6);
